STUDY TARGET: MMP-2 (Gelatinase A) (Homo sapiens)
TEST DESCRIPTION: inhibition of MMP-2 hydrolysis of thiopeptolide substrate
Format: biochemical
CONDITION PARAMETERS: thiopeptolide substrate, pH 6.0, 22° C.; read-out: (IC50) MMP-2
pIC50: −log10 of the molar value.
MEASURED METRIC: pIC50

The following molecules have reported results that may help.
- MOLECULE: "O=C(CCc1ccccc1)N[C@@H](CC(=O)c1ccc2oc3ccccc3c2c1)C(=O)O [Example 8]"
  MEASURED METRIC: "pIC50"
  MEASURED RESULT: 7.17
- MOLECULE: "O=C(C[C@@H](NC(=O)C(F)(F)F)C(=O)O)c1ccc2oc3ccccc3c2c1 [Example 2]"
  MEASURED METRIC: "pIC50"
  MEASURED RESULT: 4.36
- MOLECULE: "O=C(C[C@H](NC(=O)C(F)(F)F)C(=O)O)c1ccc2oc3ccccc3c2c1 [Example 1]"
  MEASURED METRIC: "pIC50"
  MEASURED RESULT: 7.23
- MOLECULE: "O=C(CC(NC(=O)c1ccc(Cl)c(Cl)c1)C(=O)O)c1ccc2oc3ccccc3c2c1 (centres unmarked) [Example 20]"
  MEASURED METRIC: "pIC50"
  MEASURED RESULT: 5.89
- MOLECULE: "O=C(CC(NC(=O)c1ccc2c(c1)OCO2)C(=O)O)c1ccc2oc3ccccc3c2c1 (centres unmarked) [Example 53]"
  MEASURED METRIC: "pIC50"
  MEASURED RESULT: 6.89

[A] N#Cc1ccc(C(=O)NC(CC(=O)c2ccc3oc4ccccc4c3c2)C(=O)O)cc1 (centres unmarked) [Example 35]
[B] O=C(CC(NC(=O)c1ccc2ccccc2c1)C(=O)O)c1ccc2oc3ccccc3c2c1 (centres unmarked) [Example 22]
Pick one: A or B . Which has the bigger pIC50 number? // caller expects the label of the chosen entry A

* * *

STUDY TARGET: MMP-3 (stromelysin) (Homo sapiens)
TEST DESCRIPTION: inhibition of MMP-3 hydrolysis of thiopeptolide substrate
Type: biochemical
CONDITION PARAMETERS: thiopeptolide substrate, pH 6.0, 22° C.; read-out: (IC50) MMP-3
From the text: The assays measure the amount by which a test compound reduces the hydrolysis of a thiopeptolide substrate caused by a matrix metalloproteinase enzyme. Such assays are described in detail by Ye, et al., in Biochemistry, 1992;31(45):11231-11235). Thiopeptolide substrates show virtually no decomposition or hydrolysis in the absence of a matrix metalloproteinase enzyme. A typical thiopeptolide substrate commonly utilized for assays is Ac-Pro-Leu-Gly-thioester-Len-Len-Gly-O Et. […]
MEASURED METRIC: IC50 (µM)

The following molecules have reported results that may help.
- MOLECULE: "O=C(COCc1ccccc1)NC(CC(=O)c1ccc2oc3ccccc3c2c1)C(=O)O (centres unmarked)"
  IC50 (µM): 0.33
- MOLECULE: "O=C(CC(NC(=O)C1CCCC1)C(=O)O)c1ccc2oc3ccccc3c2c1 (centres unmarked)"
  IC50 (µM): 0.35
- MOLECULE: "O=C(C[C@@H](NC(=O)C(F)(F)F)C(=O)O)c1ccc2oc3ccccc3c2c1"
  IC50 (µM): 78
- MOLECULE: "O=C(CCc1ccccc1)N[C@@H](CC(=O)c1ccc2oc3ccccc3c2c1)C(=O)O"
  IC50 (µM): 0.29
- MOLECULE: "Cc1nn(-c2ccccc2)nc1C(=O)NC(CC(=O)c1ccc2oc3ccccc3c2c1)C(=O)O (centres unmarked)"
  IC50 (µM): 14

[a] O=C(CC(NC(=O)c1ccccn1)C(=O)O)c1ccc2oc3ccccc3c2c1 (centres unmarked)
[b] CC(C)c1cccc(C(C)C)c1NC(=O)N[C@@H](CC(=O)c1ccc2oc3ccccc3c2c1)C(=O)O
Smaller IC50 value? Options are a and b // caller expects the label of the chosen entry a

* * *

STUDY TARGET: MMP-1 (interstitial collagenase) (Homo sapiens)
Sequence (P03956 100-469): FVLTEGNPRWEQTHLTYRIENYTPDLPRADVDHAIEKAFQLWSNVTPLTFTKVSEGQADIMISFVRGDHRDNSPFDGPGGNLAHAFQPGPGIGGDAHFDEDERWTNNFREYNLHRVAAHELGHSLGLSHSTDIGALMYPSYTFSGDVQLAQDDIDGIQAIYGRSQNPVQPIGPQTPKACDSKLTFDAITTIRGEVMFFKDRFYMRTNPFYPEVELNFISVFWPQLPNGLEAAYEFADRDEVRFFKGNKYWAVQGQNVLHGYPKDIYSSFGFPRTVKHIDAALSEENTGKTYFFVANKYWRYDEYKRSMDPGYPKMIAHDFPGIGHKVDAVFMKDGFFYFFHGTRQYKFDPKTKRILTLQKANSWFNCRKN
MEASURED METRIC: IC50 (µM)
I only need the number, in µM, no unit after it.

Tested on MMP-1 (interstitial collagenase) (Homo sapiens): Cc1ccc(S(=O)(=O)N[C@@H](CC(=O)c2ccc3oc4ccccc4c3c2)C(=O)O)cc1 . Observed IC50: 83

* * *

STUDY TARGET: MMP-3 (stromelysin) (Homo sapiens, UniProt P08254)
Sequence (P08254 100-477): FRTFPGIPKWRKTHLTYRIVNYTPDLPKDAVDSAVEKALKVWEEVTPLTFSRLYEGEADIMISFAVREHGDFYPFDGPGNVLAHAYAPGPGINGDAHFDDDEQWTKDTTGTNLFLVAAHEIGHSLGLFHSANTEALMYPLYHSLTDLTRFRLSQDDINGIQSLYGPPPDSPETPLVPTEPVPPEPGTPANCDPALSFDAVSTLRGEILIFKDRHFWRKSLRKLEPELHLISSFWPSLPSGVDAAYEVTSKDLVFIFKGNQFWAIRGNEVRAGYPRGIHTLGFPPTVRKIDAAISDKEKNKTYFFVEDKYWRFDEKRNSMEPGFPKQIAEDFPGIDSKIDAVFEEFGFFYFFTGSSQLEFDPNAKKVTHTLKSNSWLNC
TEST DESCRIPTION: inhibition of MMP-3 hydrolysis of thiopeptolide substrate
Format: biochemical
Source text: The assays measure the amount by which a test compound reduces the hydrolysis of a thiopeptolide substrate caused by a matrix metalloproteinase enzyme. Such assays are described in detail by Ye, et al., in Biochemistry, 1992;31(45):11231-11235). Thiopeptolide substrates show virtually no decomposition or hydrolysis in the absence of a matrix metalloproteinase enzyme. A typical thiopeptolide substrate commonly utilized for assays is Ac-Pro-Leu-Gly-thioester-Len-Len-Gly-O Et. […]
MEASURED METRIC: IC50 (µM)
I only need the number, in µM, no unit after it.

The value of IC50 measured for the molecule O=C(CC(NC(=O)C(F)(F)C(F)(F)C(F)(F)C(F)(F)C(F)(F)C(F)(F)C(F)(F)F)C(=O)O)c1ccc2oc3ccccc3c2c1 (stereo not shown) turned out to be 18

* * *

STUDY TARGET: MMP-2 (Gelatinase A) (Homo sapiens, UniProt P08253)
Sequence (P08253 110-660): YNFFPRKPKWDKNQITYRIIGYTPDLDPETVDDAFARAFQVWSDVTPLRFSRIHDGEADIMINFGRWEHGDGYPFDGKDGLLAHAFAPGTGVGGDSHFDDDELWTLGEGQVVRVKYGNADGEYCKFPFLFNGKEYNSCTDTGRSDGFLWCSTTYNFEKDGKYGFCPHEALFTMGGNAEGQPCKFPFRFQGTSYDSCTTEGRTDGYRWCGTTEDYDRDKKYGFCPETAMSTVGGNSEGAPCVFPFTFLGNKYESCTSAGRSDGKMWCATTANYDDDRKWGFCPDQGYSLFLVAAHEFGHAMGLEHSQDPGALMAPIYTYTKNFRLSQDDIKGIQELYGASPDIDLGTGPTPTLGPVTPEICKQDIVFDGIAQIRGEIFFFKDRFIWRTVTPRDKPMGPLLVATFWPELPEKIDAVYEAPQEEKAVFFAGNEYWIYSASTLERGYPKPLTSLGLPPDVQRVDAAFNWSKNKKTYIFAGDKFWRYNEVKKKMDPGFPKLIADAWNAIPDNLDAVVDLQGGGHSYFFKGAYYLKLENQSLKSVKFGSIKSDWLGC
TEST DESCRIPTION: inhibition of MMP-2 hydrolysis of thiopeptolide substrate
Type: biochemical
CONDITION PARAMETERS: thiopeptolide substrate, pH 6.0, 22° C.; read-out: (IC50) MMP-2
pIC50: −log10 of the molar value.
MEASURED METRIC: pIC50

- COMPOUND: "O=C(CC(NC(=O)c1ccco1)C(=O)O)c1ccc2oc3ccccc3c2c1 (stereo not shown)"
  MEASURED METRIC: "pIC50"
  MEASURED RESULT: 6.85

[1] CCCC(C)(C)C(=O)NC(CC(=O)c1ccc2oc3ccccc3c2c1)C(=O)O (stereo not shown)
[2] CCCCCCCC(=O)N[C@@H](CC(=O)c1ccc2oc3ccccc3c2c1)C(=O)O
[3] O=C(COc1ccc(Cl)cc1)NC(CC(=O)c1ccc2oc3ccccc3c2c1)C(=O)O (stereo not shown)
Sort the compounds on pIC50; start with the lowest figure. Sort the labels as requested; that list is your answer. 3, 2, 1
(3: 6.19, 2: 6.44, 1: 6.77)

* * *

STUDY TARGET: MMP-13 (Collagenase 3) (Homo sapiens)
TEST DESCRIPTION: inhibition of MMP-13 hydrolysis of thiopeptolide substrate
Assay type: biochemical
CONDITION PARAMETERS: thiopeptolide substrate, pH 6.0, 22° C.; read-out: (IC50) MMP-13
MEASURED METRIC: IC50 (µM)

The following compounds have reported results that may help.
- COMPOUND: "O=C(CC(NC(=O)c1ccco1)C(=O)O)c1ccc2oc3ccccc3c2c1 (stereo not drawn) [Example 41]"
  READOUT UNITS: "µM"
  MEASURED RESULT: 12
- COMPOUND: "N#Cc1ccc(C(=O)NC(CC(=O)c2ccc3oc4ccccc4c3c2)C(=O)O)cc1 (stereo not drawn) [Example 35]"
  READOUT UNITS: "µM"
  MEASURED RESULT: 11
- COMPOUND: "O=C(CC(NC(=O)c1cnc2ccccc2n1)C(=O)O)c1ccc2oc3ccccc3c2c1 (stereo not drawn) [Example 44]"
  READOUT UNITS: "µM"
  MEASURED RESULT: 27
- COMPOUND: "CC(Oc1ccccc1)C(=O)NC(CC(=O)c1ccc2oc3ccccc3c2c1)C(=O)O (stereo not drawn) [Example 30]"
  READOUT UNITS: "µM"
  MEASURED RESULT: 2.9
- COMPOUND: "O=C(CC(NC(=O)c1ccc(Cl)cc1)C(=O)O)c1ccc2oc3ccccc3c2c1 (stereo not drawn) [Example 39]"
  READOUT UNITS: "µM"
  MEASURED RESULT: 12

[A] CCCC(C)(C)C(=O)NC(CC(=O)c1ccc2oc3ccccc3c2c1)C(=O)O (stereo not drawn) [Example 23]
[B] Cc1ccc(S(=O)(=O)N[C@@H](CC(=O)c2ccc3oc4ccccc4c3c2)C(=O)O)cc1 [Example 14]
[C] O=C(CCCc1ccc(Br)cc1)NC(CC(=O)c1ccc2oc3ccccc3c2c1)C(=O)O (stereo not drawn) [Example 31]
Kindly order the items shown according to IC50, from the highest value down. Sort the labels as requested; that list is your answer. C, A, B
(C: 25 µM, A: 5.6 µM, B: 1.1 µM)

[1] O=C(CC(NC(=O)c1ccc2ccccc2c1)C(=O)O)c1ccc2oc3ccccc3c2c1 (stereo not drawn) [Example 22]
[2] COc1ccc(C(=O)NC(CC(=O)c2ccc3oc4ccccc4c3c2)C(=O)O)cc1 (stereo not drawn) [Example 46]
Smaller IC50 value? Options are 1 and 2 // caller expects the label of the chosen entry 2
(2: 11 µM, 1: 28 µM)

[A] O=C(CCc1ccccc1)N[C@@H](CC(=O)c1ccc2oc3ccccc3c2c1)C(=O)O [Example 8]
[B] O=C(CC(NC(=O)C12CC3CC(CC(C3)C1)C2)C(=O)O)c1ccc2oc3ccccc3c2c1 (stereo not drawn) [Example 26]
Smaller IC50 value? Options are A and B // caller expects the label of the chosen entry A
(A: 1.3 µM, B: 40 µM)
